# Tested on: Staphylococcus aureus
# Assay Remarks: Antibacterial activity against methicillin-resistant Staphylococcus aureus ATCC 33591 after 24 hrs
# Format: functional
# Test Context: ATCC 33591, 24 h
Positions of bridges follow the written chain, without caps; N, C: chain ends. Non-standard residues stand in square brackets, D forms with d. Residues, ends and D or L forms follow the SMILES beside them. dNMeF = CN[C@H](Cc1ccccc1)C(=O)O
For each of the compounds below, state its MIC.
Write the number in µg/mL without appending the unit.

GET /values?readout=MIC&item= CC[C@@H](C)[C@@H](NC(=O)[C@@H](CCC(N)=O)NC(=O)[C@H](CCCNC(=N)N)NC(=O)[C@@H](NC(=O)[C@@H](Cc1ccccc1)NC)[C@@H](C)CC)C(=O)N[C@H](C(=O)N[C@@H](CO)C(=O)N[C@H]1C(=O)N[C@@H](CCCNC(=N)N)C(=O)N[C@@H](CC(C)C)C(=O)N[C@@H]([C@@H](C)CC)C(=O)O[C@H]1C)[C@@H](C)CC (H-[dNMeF]IR[dQ][dI]IS[dT]RLI; ester 8-C)
1

GET /values?readout=MIC&item= CC[C@@H](C)[C@@H](NC(=O)[C@@H](CCC(N)=O)NC(=O)[C@H](CO)NC(=O)[C@@H](NC(=O)[C@@H](Cc1ccccc1)NC)[C@@H](C)CC)C(=O)N[C@H](C(=O)N[C@@H](CO)C(=O)N[C@H]1C(=O)N[C@@H](CCCNC(=N)N)C(=O)N[C@@H]([C@@H](C)CC)C(=O)N[C@@H]([C@@H](C)CC)C(=O)O[C@H]1C)[C@@H](C)CC
0.25

----------
For each of the compounds below, state its MIC.
# System: Enterococcus faecalis
# Assay Remarks: Antibacterial activity against vancomycin-resistant Enterococcus faecalis ATCC 29212 after 24 hrs
# Type: functional
# Test Context: ATCC 29212, 24 h
Positions of bridges follow the written chain, without caps; N, C: chain ends. Non-standard residues stand in square brackets, D forms with d. Residues, ends and D or L forms follow the SMILES beside them. dNMeF = CN[C@H](Cc1ccccc1)C(=O)O
Write the number in µg/mL without appending the unit.

GET /values?readout=MIC&item= CC[C@@H](C)[C@@H](NC(=O)[C@@H](CCC(N)=O)NC(=O)[C@H](CCCNC(=N)N)NC(=O)[C@@H](NC(=O)[C@@H](Cc1ccccc1)NC)[C@@H](C)CC)C(=O)N[C@H](C(=O)N[C@@H](CO)C(=O)N[C@H]1C(=O)N[C@@H](C)C(=O)N[C@@H](CC(C)C)C(=O)N[C@@H]([C@@H](C)CC)C(=O)O[C@H]1C)[C@@H](C)CC (H-[dNMeF]IR[dQ][dI]IS[dT]ALI; ester 8-C)
0.5

GET /values?readout=MIC&item= CC[C@@H](C)[C@@H](NC(=O)[C@@H](CCCNC(=N)N)NC(=O)[C@H](CO)NC(=O)[C@@H](NC(=O)[C@@H](Cc1ccccc1)NC)[C@@H](C)CC)C(=O)N[C@H](C(=O)N[C@@H](CO)C(=O)N[C@H]1C(=O)N[C@@H](C)C(=O)N[C@@H]([C@@H](C)CC)C(=O)N[C@@H]([C@@H](C)CC)C(=O)O[C@H]1C)[C@@H](C)CC
0.25

GET /values?readout=MIC&item= CC[C@@H](C)[C@@H](NC(=O)[C@@H](CCC(N)=O)NC(=O)[C@H](CO)NC(=O)[C@@H](NC(=O)[C@@H](Cc1ccccc1)NC)[C@@H](C)CC)C(=O)N[C@H](C(=O)N[C@@H](CO)C(=O)N[C@H]1C(=O)N[C@@H](CCCNC(=N)N)C(=O)N[C@@H]([C@@H](C)CC)C(=O)N[C@@H]([C@@H](C)CC)C(=O)O[C@H]1C)[C@@H](C)CC
1

----------
For each of the compounds below, state its MIC.
# System: Staphylococcus saprophyticus
# Assay Remarks: Antibacterial activity against Staphylococcus saprophyticus ATCC BAA 750 after 24 hrs
# Type: functional
# Test Context: ATCC BAA 750, 24 h

# value lookup — system Staphylococcus saprophyticus, readout MIC, item CC[C@@H](C)[C@@H](NC(=O)[C@@H](CCC(N)=O)NC(=O)[C@H](CCCNC(=N)N)NC(=O)[C@@H](NC(=O)[C@@H](Cc1ccccc1)NC)[C@@H](C)CC)C(=O)N[C@H](C(=O)N[C@@H](CO)C(=O)N[C@H]1C(=O)N[C@@H](C)C(=O)N[C@@H]([C@@H](C)CC)C(=O)N[C@@H]([C@@H](C)CC)C(=O)O[C@H]1C)[C@@H](C)CC
< 0.0625 µg/mL

# value lookup — system Staphylococcus saprophyticus, readout MIC, item CC[C@@H](C)[C@@H](NC(=O)[C@@H](CCCNC(=N)N)NC(=O)[C@H](CO)NC(=O)[C@@H](NC(=O)[C@@H](Cc1ccccc1)NC)[C@@H](C)CC)C(=O)N[C@H](C(=O)N[C@@H](CO)C(=O)N[C@H]1C(=O)N[C@@H](C)C(=O)N[C@@H]([C@@H](C)CC)C(=O)N[C@@H]([C@@H](C)CC)C(=O)O[C@H]1C)[C@@H](C)CC
< 0.0625 µg/mL

----------
For each of the molecules below, state its MIC.
# Test system: Bacillus cereus
# Assay Remarks: Antibacterial activity against Bacillus cereus ATCC 11788 after 24 hrs
# Assay type: functional
# Test Context: ATCC 11788, 24 h
Positions of bridges follow the written chain, without caps; N, C: chain ends. Non-standard residues stand in square brackets, D forms with d. Residues, ends and D or L forms follow the SMILES beside them. dNMeF = CN[C@H](Cc1ccccc1)C(=O)O
Write the number in µg/mL without appending the unit.

GET /values?readout=MIC&item= CC[C@@H](C)[C@@H](NC(=O)[C@@H](CCCNC(=N)N)NC(=O)[C@H](CO)NC(=O)[C@@H](NC(=O)[C@@H](Cc1ccccc1)NC)[C@@H](C)CC)C(=O)N[C@H](C(=O)N[C@@H](CO)C(=O)N[C@H]1C(=O)N[C@@H](CCCNC(=N)N)C(=O)N[C@@H](CC(C)C)C(=O)N[C@@H]([C@@H](C)CC)C(=O)O[C@H]1C)[C@@H](C)CC (H-[dNMeF]IS[dR][dI]IS[dT]RLI; ester 8-C)
1

GET /values?readout=MIC&item= CC[C@@H](C)[C@@H](NC(=O)[C@@H](CCC(N)=O)NC(=O)[C@H](CCCNC(=N)N)NC(=O)[C@@H](NC(=O)[C@@H](Cc1ccccc1)NC)[C@@H](C)CC)C(=O)N[C@H](C(=O)N[C@@H](CO)C(=O)N[C@H]1C(=O)N[C@@H](CCCNC(=N)N)C(=O)N[C@@H](CC(C)C)C(=O)N[C@@H]([C@@H](C)CC)C(=O)O[C@H]1C)[C@@H](C)CC (H-[dNMeF]IR[dQ][dI]IS[dT]RLI; ester 8-C)
1

GET /values?readout=MIC&item= CC[C@@H](C)[C@@H](NC(=O)[C@@H](CCCNC(=N)N)NC(=O)[C@H](CCCNC(=N)N)NC(=O)[C@@H](NC(=O)[C@@H](Cc1ccccc1)NC)[C@@H](C)CC)C(=O)N[C@H](C(=O)N[C@@H](CO)C(=O)N[C@H]1C(=O)N[C@@H](C)C(=O)N[C@@H](CC(C)C)C(=O)N[C@@H]([C@@H](C)CC)C(=O)O[C@H]1C)[C@@H](C)CC (H-[dNMeF]IR[dR][dI]IS[dT]ALI; ester 8-C)
1

----------
# Test system: Staphylococcus saprophyticus
# Assay Remarks: Antibacterial activity against Staphylococcus saprophyticus ATCC BAA 750 after 24 hrs
# Format: functional
# Test Context: ATCC BAA 750, 24 h
Positions of bridges follow the written chain, without caps; N, C: chain ends. Non-standard residues stand in square brackets, D forms with d. Residues, ends and D or L forms follow the SMILES beside them. dNMeF = CN[C@H](Cc1ccccc1)C(=O)O
For each of the molecules below, state its MIC.

GET /values?readout=MIC&item= CC[C@@H](C)[C@@H](NC(=O)[C@@H](CCC(N)=O)NC(=O)[C@H](CCCNC(=N)N)NC(=O)[C@@H](NC(=O)[C@@H](Cc1ccccc1)NC)[C@@H](C)CC)C(=O)N[C@H](C(=O)N[C@@H](CO)C(=O)N[C@H]1C(=O)N[C@@H](C)C(=O)N[C@@H](CC(C)C)C(=O)N[C@@H]([C@@H](C)CC)C(=O)O[C@H]1C)[C@@H](C)CC (H-[dNMeF]IR[dQ][dI]IS[dT]ALI; ester 8-C)
< 0.0625 µg/mL

GET /values?readout=MIC&item= CC[C@@H](C)[C@@H](NC(=O)[C@@H](CCCNC(=N)N)NC(=O)[C@H](CO)NC(=O)[C@@H](NC(=O)[C@@H](Cc1ccccc1)NC)[C@@H](C)CC)C(=O)N[C@H](C(=O)N[C@@H](CO)C(=O)N[C@H]1C(=O)N[C@@H](C)C(=O)N[C@@H](CC(C)C)C(=O)N[C@@H]([C@@H](C)CC)C(=O)O[C@H]1C)[C@@H](C)CC
< 0.0625 µg/mL

GET /values?readout=MIC&item= CC[C@@H](C)[C@@H](NC(=O)[C@@H](CCCNC(=N)N)NC(=O)[C@H](CCCNC(=N)N)NC(=O)[C@@H](NC(=O)[C@@H](Cc1ccccc1)NC)[C@@H](C)CC)C(=O)N[C@H](C(=O)N[C@@H](CO)C(=O)N[C@H]1C(=O)N[C@@H](C)C(=O)N[C@@H](CC(C)C)C(=O)N[C@@H]([C@@H](C)CC)C(=O)O[C@H]1C)[C@@H](C)CC (H-[dNMeF]IR[dR][dI]IS[dT]ALI; ester 8-C)
< 0.0625 µg/mL
